# credit: patent US20130116263A1

# IC50 per entry
# Measured On: PAK1 (Homo sapiens)
# Procedure Details: Additional in vitro PAK1 inhibition assay at ATP 10 uM and 1 mM
# Format: biochemical
# Measurement Conditions: 1 mM ATP; read-out: PAK1 IC50 (1 mM ATP)
Assay Metric: IC50

Cc1nc(-c2ccc(-c3cc4cnc(NC5CCOCC5)nc4n(CC(=O)NC4CCNCC4)c3=O)c(Cl)c2)no1	≥ 5 µM
CCn1c(=O)c(-c2ccc(-c3noc(C)n3)cc2Cl)cc2cnc(NCCCOC)nc21	≥ 5 µM
Cc1nc(-c2ccc(-c3cc4cnc(NC5CCOCC5)nc4n(Cc4ccc5c(c4)CNC5)c3=O)c(Cl)c2)no1	≥ 5 µM
CCCCNc1ncc2cc(-c3ccc(-c4noc(C)n4)cc3Cl)c(=O)n(CC)c2n1	≥ 5 µM
Cc1nc(-c2ccc(-c3cc4cnc(NC5CCOCC5)nc4n(C4CCOC(C)(C)C4)c3=O)c(Cl)c2)no1 (centres unmarked)	0.5 to 5 µM
Cc1nc(-c2ccc(-c3cc4cnc(NC5CCOCC5)nc4n(C4CCN(CCN)C4)c3=O)c(Cl)c2)no1 (centres unmarked)	≥ 5 µM
Cc1nc(-c2ccc(-c3cc4cnc(NC5CCOCC5)nc4n(CC(=O)N4CCCC(CN)C4)c3=O)c(Cl)c2)no1 (centres unmarked)	≥ 5 µM
Cc1nc(-c2ccc(-c3cc4cnc(NC5CCOCC5)nc4n(CCC4CCNCC4)c3=O)c(Cl)c2)no1 [drawing 343]	0.5 to 5 µM
Cc1nc(-c2ccc(-c3cc4cnc(NC5CCOCC5)nc4n(CC4CCCN(C)C4)c3=O)c(Cl)c2)no1 (centres unmarked)	≥ 5 µM
CCn1c(=O)c(-c2ccc(-c3noc(C)n3)cc2Cl)cc2cnc(NC3CC3)nc21	≥ 5 µM
Cc1nc(-c2ccc(-c3cc4cnc(NC5CCOCC5)nc4n(CC(=O)N4CCC(CN)CC4)c3=O)c(Cl)c2)no1 [drawing 352]	≥ 5 µM
Cc1nc(-c2ccc(-c3cc4cnc(NC5CCOCC5)nc4n(Cc4ccc(CCN)cc4)c3=O)c(Cl)c2)no1 [drawing 338]	0.5 to 5 µM
CCn1c(=O)c(-c2ccc(-c3noc(C)n3)cc2Cl)cc2cnc(NCC3CCOCC3)nc21	≥ 5 µM
CCn1c(=O)c(-c2ccc(-c3noc(C)n3)cc2Cl)cc2cnc(NC3CC3c3ccccc3)nc21 (centres unmarked)	0.5 to 5 µM
Cc1nc(-c2ccc(-c3cc4cnc(NC5CCOCC5)nc4n(C4CCNC4)c3=O)c(Cl)c2)no1 (centres unmarked)	≥ 5 µM
Cc1nc(-c2ccc(-c3cc4cnc(NC5CCOCC5)nc4n(CC(=O)N4CCCC(N)C4)c3=O)c(Cl)c2)no1 (centres unmarked)	≥ 5 µM
Cc1nc(-c2ccc(-c3cc4cnc(NC5CCOCC5)nc4n(Cc4ccc(CN)cc4)c3=O)c(Cl)c2)no1 [drawing 341]	0.05 to 0.5 µM

---

# IC50 per entry
# Measured On: PAK2 (PAK65) (Homo sapiens, UniProt Q13177)
# Sequence (Q13177 whole entry): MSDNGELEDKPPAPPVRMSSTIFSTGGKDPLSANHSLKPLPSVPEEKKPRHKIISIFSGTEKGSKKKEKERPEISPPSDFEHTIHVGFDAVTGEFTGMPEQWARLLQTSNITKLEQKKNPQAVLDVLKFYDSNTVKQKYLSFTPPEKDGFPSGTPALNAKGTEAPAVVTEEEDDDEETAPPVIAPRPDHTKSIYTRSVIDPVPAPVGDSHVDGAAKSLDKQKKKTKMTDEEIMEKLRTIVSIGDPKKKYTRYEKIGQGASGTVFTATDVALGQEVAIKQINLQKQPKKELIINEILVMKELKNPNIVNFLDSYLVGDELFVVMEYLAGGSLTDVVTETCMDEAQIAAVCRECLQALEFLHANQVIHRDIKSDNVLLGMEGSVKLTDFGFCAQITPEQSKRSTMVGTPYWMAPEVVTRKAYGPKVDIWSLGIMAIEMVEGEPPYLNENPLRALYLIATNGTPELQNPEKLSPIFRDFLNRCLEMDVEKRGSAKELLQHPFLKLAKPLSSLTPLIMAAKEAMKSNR
# Procedure Details: In vitro PAK inhibition assay (Z'-LYTE, SelectScreen), PAK2
# Format: biochemical
# Measurement Conditions: read-out: PAK2 IC50
Assay Metric: IC50

CCn1c(=O)c(-c2ccc(-c3ccncc3)cc2Cl)cc2cnc(NC3CCOCC3)nc21 [Example 43]	500 to 5000 nM
Cc1cncc(-c2ccc(-c3cc4cnc(NC5CCOCC5)nc4n(Cc4ccccc4F)c3=O)c(Cl)c2)n1 [Example 36]	50 to 500 nM
CCn1c(=O)c(-c2ccc(-c3ccnnc3)cc2Cl)cc2cnc(N[C@@H]3CCOC3)nc21 [Example 62]	> 5000 nM
CCn1c(=O)c(-c2ccc(-c3cnccn3)cc2Cl)cc2cnc(N[C@@H]3CCOC3)nc21 [Example 60]	50 to 500 nM
CCn1c(=O)c(-c2ccc(-c3cncc(C)n3)cc2Cl)cc2cnc(NC3C[C@@H](C)O[C@@H](C)C3)nc21 (stereo partly shown) [Example 37]	50 to 500 nM
CCn1c(=O)c(-c2ccc(-c3nccnc3C)cc2Cl)cc2cnc(N[C@@H]3CCOC3)nc21 [Example 58]	50 to 500 nM
CCn1c(=O)c(-c2ccc(-c3cncc(C)n3)cc2Cl)cc2cnc(N[C@H]3CC[C@H](CN(C)C)CC3)nc21 [Example 84]	< 50 nM

---

# Measured On: PAK2 (PAK65) (Homo sapiens)
# Procedure Details: In vitro PAK inhibition assay (Z'-LYTE, SelectScreen), PAK2
# Assay type: biochemical
# Measurement Conditions: read-out: PAK2 IC50
Assay Metric: IC50

Cc1nccnc1-c1ccc(-c2cc3cnc(NC4CCOCC4)nc3[nH]c2=O)c(Cl)c1	50 to 500 nM
CCn1c(=O)c(-c2ccc(-c3nccnc3C)cc2Cl)cc2cnc(N[C@@H]3CCOC(C)(C)C3)nc21 (stereo in doubt)	< 50 nM
Cc1nccnc1-c1ccc(-c2cc3cnc(NC4CCOCC4)nc3n(C)c2=O)c(Cl)c1	50 to 500 nM
Cc1cncc(-c2ccc(-c3cc4cnc(NC5CCOCC5)nc4n(Cc4ccccc4C(F)(F)F)c3=O)c(Cl)c2)n1	< 50 nM
Cc1cncc(-c2ccc(-c3cc4cnc(NC5CCOCC5)nc4n(Cc4ccccc4)c3=O)c(Cl)c2)n1	< 50 nM
CCn1c(=O)c(-c2ccc(-c3cncc(C)n3)cc2Cl)cc2cnc(NC3CCOC(C)(C)C3)nc21 (stereo not shown)	50 to 500 nM
Cc1cncc(-c2ccc(-c3cc4cnc(NC5CCOCC5)nc4n(C4CCCC4)c3=O)c(Cl)c2)n1	50 to 500 nM

---

# Measured On: PAK1 (Homo sapiens, UniProt Q13153)
# Sequence (Q13153 whole entry): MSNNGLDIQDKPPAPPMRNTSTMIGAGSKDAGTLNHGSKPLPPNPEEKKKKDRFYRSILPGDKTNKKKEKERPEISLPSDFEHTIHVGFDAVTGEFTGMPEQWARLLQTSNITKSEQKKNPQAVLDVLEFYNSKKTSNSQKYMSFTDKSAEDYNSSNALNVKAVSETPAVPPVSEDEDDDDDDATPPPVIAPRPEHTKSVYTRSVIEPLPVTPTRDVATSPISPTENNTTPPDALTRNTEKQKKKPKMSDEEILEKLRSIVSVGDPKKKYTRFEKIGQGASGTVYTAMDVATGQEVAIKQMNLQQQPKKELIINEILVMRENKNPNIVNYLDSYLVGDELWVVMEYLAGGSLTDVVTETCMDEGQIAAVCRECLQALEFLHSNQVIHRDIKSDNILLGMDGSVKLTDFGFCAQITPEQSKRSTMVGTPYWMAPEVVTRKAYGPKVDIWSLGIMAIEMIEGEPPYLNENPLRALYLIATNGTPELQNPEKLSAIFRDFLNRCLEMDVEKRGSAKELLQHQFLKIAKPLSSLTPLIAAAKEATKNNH
# Procedure Details: In vitro PAK inhibition assay (Z'-LYTE, SelectScreen), PAK1
# Type: biochemical
# Measurement Conditions: read-out: PAK1 IC50
pIC50: −log10 of the molar value.
# pIC50 per entry
Assay Metric: pIC50

CCn1c(=O)c(-c2ccc(-c3nccnc3C)cc2Cl)cc2cnc(NCCN(C)C)nc21	5.30 to 6.30
CCn1c(=O)c(-c2ccc(-c3nccnc3C)cc2Cl)cc2cnc(NC3CCCN(C)C3)nc21 (stereo not shown)	6.30 to 7.30
Cc1cnc(-c2ccc(-c3cc4cnc(NC5CCOCC5)nc4n(Cc4ccccc4C(F)(F)F)c3=O)c(Cl)c2)s1	6.30 to 7.30
CCn1c(=O)c(-c2ccc(-c3cnccc3C)cc2Cl)cc2cnc(N[C@@H]3CCOC3)nc21	6.30 to 7.30

---

# Measured On: PAK2 (PAK65) (Homo sapiens)
# Procedure Details: In vitro PAK inhibition assay (Z'-LYTE, SelectScreen), PAK2
# Type: biochemical
# Measurement Conditions: read-out: PAK2 IC50
Assay Metric: IC50

CCn1c(=O)c(-c2ccc(-c3nccnc3C)cc2Cl)cc2cnc(NC3CCOCC3)nc21	50 to 500 nM
CCn1c(=O)c(-c2ccc(-c3cccnc3OC)cc2Cl)cc2cnc(NC3CCOCC3)nc21	> 5000 nM
CCn1c(=O)c(-c2ccc(-c3nccnc3C)cc2Cl)cc2cnc(NC3CCCNC3)nc21 (stereo not shown)	50 to 500 nM
CCn1c(=O)c(-c2cc(C)c(-c3noc(C)n3)cc2Cl)cc2cnc(N[C@@H]3CCOC3)nc21	500 to 5000 nM
CCn1c(=O)c(-c2ccc(-c3nccnc3C)cc2Cl)cc2cnc(NCCN(C)C)nc21	500 to 5000 nM
CCn1c(=O)c(-c2ccc(-c3nccnc3C)cc2Cl)cc2cnc(NC3CC[S+]([O-])CC3)nc21 (stereo not shown)	50 to 500 nM
CCn1c(=O)c(-c2cc(C)c(-c3cncc(C)n3)cc2Cl)cc2cnc(N[C@@H]3CCOC3)nc21	< 50 nM
CCn1c(=O)c(-c2ccc(-c3cccnc3C)cc2Cl)cc2cnc(NC3CCOCC3)nc21	500 to 5000 nM
CCn1c(=O)c(-c2ccc(-c3cncc(C)n3)cc2Cl)cc2cnc(NCC3CCC(N)CC3)nc21 (stereo not shown)	< 50 nM
CCn1c(=O)c(-c2ccc(-c3nccnc3C)cc2Cl)cc2cnc(NC3CCN(C)C3)nc21 (stereo not shown)	50 to 500 nM
COCCCn1c(=O)c(-c2ccc(-c3cncc(C)n3)cc2Cl)cc2cnc(N[C@@H]3CCOC3)nc21	< 50 nM
CCn1c(=O)c(-c2ccc(-c3nccnc3C)cc2Cl)cc2cnc(NC3CCNCC3)nc21	500 to 5000 nM
CCn1c(=O)c(-c2ccc(-c3cncc(C)n3)cc2Cl)cc2cnc(NCCCC3CCN(C)CC3)nc21	50 to 500 nM
CCn1c(=O)c(-c2ccc(-c3noc(C)n3)cc2Cl)cc2cnc(NC3CCOCC3)nc21	50 to 500 nM
CCn1c(=O)c(-c2ccc(-c3cncc(C)n3)cc2Cl)cc2cnc(N[C@H]3CC[C@@H](N)CC3)nc21	50 to 500 nM
CCn1c(=O)c(-c2ccc(-c3ccn(C)n3)cc2Cl)cc2cnc(N[C@@H]3CCOC3)nc21	50 to 500 nM
